Hi there, I'd appreciate the recorded GI50 for every entry that follows.
System: HCC-2998 colon
Procedure Details: NCI tumour cell line growth inhibition, 48 h

IN: Param readout= GI50; system= HCC-2998 colon; entry= OC(CNC1CCCC1)Cn1c2ccccc2c2ccccc21 (stereo not drawn) ; returns value.
OUT: > 100000 nM

IN: Param readout= GI50; system= HCC-2998 colon; entry= O=C(N/N=C\c1ccc(N(CCCl)CCCl)cc1Cl)c1cccnc1 ; returns value.
OUT: 17200 nM

IN: Param readout= GI50; system= HCC-2998 colon; entry= CN1CCn2c(c(Sc3ccc(C(=O)NO)cc3)c3ccccc32)C1=O ; returns value.
OUT: 1940 nM

IN: Param readout= GI50; system= HCC-2998 colon; entry= N#CC1=C(N)Oc2c(sc3c(F)cccc23)C1c1ccc(F)cc1 (stereo not drawn) ; returns value.
OUT: 1620 nM

IN: Param readout= GI50; system= HCC-2998 colon; entry= CN(C)c1ccc(O)c2c1C[C@H]1C[C@H]3[C@H](N(C)C)C(=O)C(C(N)=O)=C(O)[C@@]3(O)C(=O)C1=C2O ; returns value.
OUT: 4190 nM

IN: Param readout= GI50; system= HCC-2998 colon; entry= C=C1C(=O)O[C@H]2[C@H]1CC/C(CNS(=O)(=O)c1cccc3ccccc13)=C\CC[C@@]1(C)O[C@@H]21 ; returns value.
OUT: 2160 nM

IN: Param readout= GI50; system= HCC-2998 colon; entry= Clc1ccc2c(c1)-c1ccccc1C1=NCCN12 ; returns value.
OUT: 1870 nM

IN: Param readout= GI50; system= HCC-2998 colon; entry= COc1cc(/C=C/C(=O)c2c(C)n([O-])c3ccc(Cl)cc3[n+]2=O)cc(OC)c1OC ; returns value.
OUT: > 100000 nM
